- Measurement Description: probe aLefty2 binding to arrayed compounds – biochemical, biotinylated probe, 635/667 nm fluorescence, primary screen (AID 1094);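 further: score merges spot fluorescence near 667 nm with spot signal-to-noise ratio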
- Test Context: small-molecule microarray, higher = more signal

Compound: CCCC[C@H]1C[C@@H]1[C@@H]1N(P(=O)(c2ccccc2)c2ccccc2)[C@](CO)(c2ccccc2)CC12CC2
composite z-score: 0.325

Compound: CCN(CC)c1ccc(N2CC=CC34O[C@@H]5/C=C\CCC(C)OC(=O)C5[C@H]3C(=O)N(CCCCCCO)[C@@H]4C2=O)cc1 (some centres not stated)
composite z-score: -0.204

Compound: COCCCNC(=O)[C@@]1(C)c2ccccc2C(=O)N(Cc2ccccc2)[C@H]1c1ccc(CO)cc1
composite z-score: -0.11

Compound: C=C(CCCC)/C(=C/C[C@H](OC(C)=O)c1ccc(CO)o1)c1cc(C(=O)OC)ccc1OC
composite z-score: -0.0371

Compound: O=C1O[C@@H](c2ccccc2)[C@@H](c2ccccc2)N2[C@@H](c3ccc(O)cc3)[C@]3(C(=O)Nc4ccccc43)[C@@H](C(=O)NC[C@H](O)c3ccccc3)[C@H]12
composite z-score: -0.12

Compound: O=C1C[C@@](C(=O)O)(c2ccc([N+](=O)[O-])cc2)[C@@H](c2ccc(CO)cc2I)N1C1CCCCC1
composite z-score: 0.0539

Compound: O=C(NCCN1CCOCC1)[C@@H]1c2ccccc2C(=O)N(Cc2cc(F)cc(C(F)(F)F)c2)[C@H]1c1ccc(CO)cc1
composite z-score: -0.22

###

- Measurement Description: FRG1 expression reporter modulators in myotubes – cell-based, C2C12 myotubes, firefly/Renilla luciferase, luminescence, FRG1 inhibition for FSHD, primary screen (AID 1084)
- Test Context: FRG1 promoter luciferase, higher = more signal, called active from +8 up or from −8 down
Listing of recorded z-score by entry.
Measurement Type: z-score

Molecule: O=C1C2C=CC(C(O)c3cccc4ccccc34)N(n3cnnc3)C2C(=O)N1Cc1ccccc1 (centres undefined)
Quantitative Result: -0.259
//
Molecule: C=CC[C@]1(C(=O)O)N=C(c2ccc(OCCCO)cc2)O[C@H]1c1ccccc1CN=[N+]=[N-]
Quantitative Result: 2.22
//
Molecule: COC(=O)[C@@]1(Cc2ccc(OC)cc2)[C@H]2c3cc(C(=O)N4CCCC4)n(C[C@H](O)CO)c3C[C@H]2CN1C(=O)c1ccccc1
Quantitative Result: 1.13
//
Molecule: CCCC[C@H]1C[C@@H]1[C@@H]1N(P(=O)(c2ccccc2)c2ccccc2)[C@](CO)(c2ccccc2)CC12CC2
Quantitative Result: 0.273
//
Molecule: O=C1O[C@@H](c2ccccc2)[C@@H](c2ccccc2)N2[C@@H](c3ccccc3OCCO)[C@]3(C(=O)Nc4ccc(C#CC5(O)CCCCCC5)cc43)[C@@H](C(=O)NC[C@H](O)c3ccccc3)[C@H]12
Quantitative Result: -1.2
//
Molecule: CCCCN1CC=CC23O[C@@H]4/C=C\CCCOC(=O)C4[C@H]2C(=O)N(C(C)CO)[C@@H]3C1=O (some centres undefined)
Quantitative Result: -1.01
//
Molecule: CCOC(=O)C[C@H]1[C@H](OC(=O)c2cc3ccccc3oc2=O)[C@@H](NC(=O)c2ccc3ccccc3c2)c2cc(OCCCO)ccc2N1C(=O)c1ccccc1
Quantitative Result: 0.0705
//
Molecule: CCOC(=O)N1C(c2ccc(OCCCO)cc2)=NC(C(=O)OC)N1C(=O)OCC (centres undefined)
Quantitative Result: 1.37
//
Molecule: CN1C(=O)C2C=CC(C(O)C3=C[C@H]4C[C@@H](C3)C4(C)C)N(Nc3ccc([N+](=O)[O-])cc3[N+](=O)[O-])C2C1=O (some centres undefined)
Quantitative Result: 0.0285
//
Molecule: CCCNC(=O)[C@@]1(C)c2ccccc2C(=O)N(Cc2cc(C(F)(F)F)cc(C(F)(F)F)c2)[C@H]1c1ccc(CO)cc1
Quantitative Result: 0.0565
//
Molecule: CC[C@@H]1C=C(C(=O)O)[C@H](c2ccc(C(C)C)cc2)N1S(=O)(=O)c1ccc(C)cc1
Quantitative Result: -2.32
//
Molecule: CCCCCCC#C[Si](O[C@H](c1ccccc1)c1cn([C@H](C)c2ccccc2)nn1)(C(C)C)C(C)C
Quantitative Result: -0.532
//
Molecule: O=C1OCCC/C=C\[C@H]2OC34C=CCN(Cn5nnc6ccccc65)C(=O)[C@H]3N(CCCO)C(=O)[C@@H]4C12 (some centres undefined)
Quantitative Result: -0.126
//
Molecule: CN1C(=O)C2C=CC(C(O)C(C)(C)C)N(Nc3ccccc3)C2C1=O (centres undefined)
Quantitative Result: -0.269
//
Molecule: O=C(CS)NCCCCCCNC(=O)[C@H]1C[C@H]2C(=O)N3CCC[C@H]3C(=O)N2[C@H]1c1ccc(O)cc1
Quantitative Result: 1.04
//
Molecule: O=C1C2C=CC(C(O)c3ccc(B(O)O)cc3)N(Nc3ccc([N+](=O)[O-])cc3)C2C(=O)N1c1ccccc1 (centres undefined)
Quantitative Result: 0.663
//
Molecule: C=C(COC)C(=O)CC[C@H](OC(=O)c1cccnc1)c1ccccc1OCCO
Quantitative Result: 0.445
//
Molecule: COc1ccccc1CN1C(=O)c2ccccc2[C@](Cc2ccccc2I)(C(=O)NCc2ccccc2)[C@@H]1c1ccc(CO)cc1
Quantitative Result: -1.13
//
Molecule: C=CCOC(=O)[C@@H]1[C@H]2C(=O)O[C@H](c3ccccc3)[C@H](c3ccccc3)N2[C@H](c2ccc(OCCOC(=O)[C@H]3C[C@H]4C(=O)N[C@@H](CC(C)C)C(=O)N4[C@H]3c3cccc(OCCO)c3)cc2)[C@@]12C(=O)Nc1ccc(I)cc12
Quantitative Result: 1.6
//
Molecule: O=C1O[C@@H](c2ccccc2)[C@@H](c2ccccc2)N2[C@@H](c3ccc(O)cc3)[C@]3(C(=O)Nc4ccccc43)[C@@H](C(=O)N3CCCCCCC3)[C@H]12
Quantitative Result: -4.16
//
Molecule: COCCn1c(C(=O)N2CCCC2)cc2c1C[C@H]1CN(C(=O)c3ccccc3)[C@@](Cc3ccc(OC)cc3)(C(=O)OC)[C@@H]21
Quantitative Result: -1.1
//
Molecule: Cc1ccc(C(C)CC(O)C2C=CC3C(=O)NC(=O)C3N2Nc2ccccn2)o1 (centres undefined)
Quantitative Result: 0.327
//
Molecule: COc1cc(CO)cc(I)c1O[C@H]1C=C(C(=O)NCCO)C[C@@H](N(CCc2cccc(F)c2)C(=O)CCC2CCCC2)[C@@H]1O
Quantitative Result: -4.64
//
Molecule: O=C1OCC=C[C@H]2OC34C=CCN(c5ccc(Cl)cc5)C(=O)[C@H]3N(CCCO)C(=O)[C@@H]4[C@@H]12 (some centres undefined)
Quantitative Result: -0.0992
//
Molecule: O=C(NCc1ccccc1)[C@@H]1c2ccccc2C(=O)N(Cc2cc(F)cc(C(F)(F)F)c2)[C@H]1c1ccc(CO)cc1
Quantitative Result: -1.67
//
Molecule: C=CCC(OC(C)=O)[C@@H]1[C@@H](N(Cc2cc3ccccc3o2)C(=O)c2cccc3ccccc23)c2cc(OCCCO)ccc2N1C(=O)Cc1ccc(OC)cc1 (some centres undefined)
Quantitative Result: -0.709
//
Molecule: C=CCN1C(=O)[C@@]2(O[C@@H](CCO)[C@H]([Si](C)(C)c3ccc(OC)cc3)[C@H]2C)c2cc(NC(C)=O)ccc21
Quantitative Result: -0.174
//
Molecule: C=CCN1Cc2ccccc2C[C@@]2(COC(c3ccc(OCCCO)cc3)=N2)C1=O
Quantitative Result: -3.79
//
Molecule: CN1C(=O)C2C=CC(C(O)c3ccccc3)N(NC(=O)OC(C)(C)C)C2C1=O (centres undefined)
Quantitative Result: 1.82

###

- Measurement Description: probe aLefty2 binding to arrayed compounds – biochemical, biotinylated probe, 635/667 nm fluorescence, primary screen (AID 1094);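 further: score merges spot fluorescence near 667 nm with spot signal-to-noise ratio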
- Test Context: small-molecule microarray, higher = more signal
Measurement Type: composite z-score

Compound: O=C1OCCC=C[C@H]2OC34C=CCN(c5ccc6ccccc6c5)C(=O)[C@H]3N(CCCCCCO)C(=O)[C@@H]4C12 (some centres undefined)
Result: -0.087
--
Compound: Oc1ccc2cc[n+](Cc3cccc(OC(F)(F)F)c3)cc2c1
Result: -0.0541
--
Compound: CN(C)CCCCNC(=O)[C@@H]1C[C@@H]2C(=O)N[C@@H](CCCCN)C(=O)N2[C@@H]1c1cccc(OCCO)c1
Result: 0.197
--
Compound: CC(C)N1C(=O)c2ccccc2[C@](C)(C(=O)NCCCN(C)C)[C@@H]1c1ccc(CO)cc1
Result: 0.0071
--
Compound: CC(c1ccccc1)C(O)C1C=CC2C(=O)N(Cc3ccccc3)C(=O)C2N1n1cnnc1 (centres undefined)
Result: 0.0524
--
Compound: C=CC[C@@]1(C(=O)OC)N=C(c2ccc(OCCCO)cc2)O[C@@H]1c1ccccc1CN=[N+]=[N-]
Result: 0.0427
--
Compound: CCOC(=O)C[C@H]1[C@H](OC(=O)c2ccccc2-c2ccccc2)[C@@H](NC(=O)c2ccc(-c3ccccc3)cc2)c2cc(OCCCO)ccc2N1C(=O)c1ccccc1
Result: -0.0888
--
Compound: CC(=O)n1cc(C(O)C2C=CC3C(=O)N(c4ccccc4)C(=O)C3N2Nc2ccc(C#N)cc2)c2ccccc21 (centres undefined)
Result: 0.401
--
Compound: COc1cc(NN2C(C(O)c3ccccc3)C=CC3C(=O)N(c4ccccc4)C(=O)C32)cc(OC)c1OC (centres undefined)
Result: 0.17
--
Compound: COc1ccc([Si](C)(C)[C@H]2[C@H](CC(=O)N3CCC[C@H]3CO)O[C@@]3(C(=O)N(c4ccccc4)c4ccccc43)[C@@H]2C)cc1
Result: -0.0651
--
Compound: O=C1O[C@@H](c2ccccc2)[C@@H](c2ccccc2)N2[C@@H](c3ccc(O)cc3)[C@]3(C(=O)Nc4ccc(C#CCCO)cc43)[C@@H](C(=O)N3CCCCCCC3)[C@H]12
Result: 1.26
--
Compound: O=C1c2ccccc2[C@@]2(Cc3ccccc3N(Cc3ccccc3)C2=O)[C@H](c2ccc(CO)cc2)N1Cc1ccccc1C(F)(F)F
Result: -0.222
--
Compound: C=CCN1C(=O)[C@]2(Cc3ccccc31)N=C(c1ccc(OCCCO)cc1)O[C@@H]2c1ccccc1
Result: 0.235
--
Compound: O=C1O[C@H](c2ccccc2)[C@H](c2ccccc2)N2[C@H]1[C@@H](C(=O)N1CCCCCCC1)[C@]1(C(=O)Nc3ccc(C#CC4=CCCCC4)cc31)[C@H]2c1ccc(O)cc1
Result: 1.91
--
Compound: COc1ccccc1CN1C(=O)c2ccccc2[C@](Cc2ccccc2I)(C(=O)NC2CC2)[C@@H]1c1ccc(CO)cc1
Result: -0.117
--
Compound: CC(C)C(CO)N1C(=O)[C@@H]2[C@H]3C(=O)OCC=C[C@H]3OC23C=CCN(c2ccc4ccccc4c2)C(=O)[C@@H]13 (some centres undefined)
Result: -0.192
--
Compound: C=C(C(=O)CC[C@H](OC(=O)c1cccnc1)c1ccccc1OCCO)C(C)C
Result: 0.0692
--
Compound: O=C1C2C=CC(C(O)CCc3ccccc3)N(Nc3ccccc3)C2C(=O)N1c1ccccc1 (centres undefined)
Result: 0.231
--
Compound: CC(=O)N1Cc2ccccc2C[C@@]2(N=C(c3ccc(OCCCO)cc3)O[C@H]2c2ccccc2)C1=O
Result: 0.215
--
Compound: C=CC[C@]1(C(=O)O)N=C(c2ccc(OCCCO)cc2)O[C@H]1c1ccccc1CN=[N+]=[N-]
Result: -0.135
--
Compound: C=CC[C@]1(C(=O)NCCN2CCOCC2)N=C(c2ccc(OCCCO)cc2)O[C@H]1c1ccccc1N=[N+]=[N-]
Result: 0.432
--
Compound: [N-]=[N+]=NCc1ccccc1C[C@]1(C(=O)NCc2ccccc2)COC(c2ccc(OCCCO)cc2)=N1
Result: -0.0438
--
Compound: C=CCNC(=O)[C@H]1[C@@H]2C(=O)O[C@@H](c3ccccc3)[C@@H](c3ccccc3)N2[C@@H](c2ccc(OCCO)cc2)[C@]12C(=O)N(C(=O)OCCOC)c1ccc(C#CC3(O)CCCCCC3)cc12
Result: -0.0319
--
Compound: CCCC[C@@H]1C[C@H]1[C@@H](NC(=O)c1ccccc1)c1ccc(-c2ccccc2)cc1
Result: -0.12
--
Compound: Cc1ccc(S[C@]2(C(=O)NCCCN(C)C)CC(=O)N(C(C)C)[C@@H]2c2ccc(CO)cc2I)cc1
Result: -0.0654
--
Compound: C=CCC(OC(C)=O)[C@@H]1[C@@H](N(Cc2ccc(-c3ccccc3)cc2)C(=O)c2ccc(C)cc2)c2cc(OCCCO)ccc2N1C(=O)c1ccc2ccccc2n1 (some centres undefined)
Result: 0.407
--
Compound: COc1ccc(C#Cc2ccc3c(c2)[C@]2(C(=O)N3)[C@H](C(=O)N3CCc4cc(OC)c(OC)cc4C3)[C@H]3C(=O)O[C@H](c4ccccc4)[C@H](c4ccccc4)N3[C@@H]2c2ccc(OCCO)cc2)cc1
Result: -0.0728
--
Compound: [N-]=[N+]=Nc1ccccc1C[C@]1(C(=O)N2CCCCC2)N=C(c2ccc(OCCCO)cc2)O[C@H]1c1ccccc1N=[N+]=[N-]
Result: 0.512
--
Compound: COc1ccc(C(=O)Nc2cccc(CN3C(=O)[C@@]4(O[C@@H](CCn5cc([C@H](O)c6ccccc6)nn5)[C@H]([Si](C)(C)c5ccc(OC)cc5)[C@H]4C)c4ccccc43)c2)cc1
Result: 0.0123
